assay: chemical genetic growth profiling, strain panel (AID 1159580);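 note: tested at 20 µM; growth read once vehicle control cultures reached saturation at 30 °C; 1 = growth at the plate median or of vehicle wells; lower values mean less growth of the strain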; settings: S. cerevisiae deletion strains, growth OD, locus YJL187C, strain SWE1 (second series), stronger effect = lower value
The campaign covered roughly 5,500 compounds. About 2,000 (36%) were called active. Inconclusive results (about 18%) are left out. The list shows a part of the results.
Here the recorded normalized growth is given for each entry.

molecule	normalized growth
CN(C)CCCN1c2ccccc2Sc2ccc(C(F)(F)F)cc21	0.992
CN(C)[C@@H]1C(=O)C(C(N)=O)=C(O)[C@@]2(O)C(=O)C3=C(O)c4c(O)ccc(Cl)c4[C@@](C)(O)[C@H]3C[C@@H]12	0.988
CN(C)CCCN1c2ccccc2CCc2ccccc21	1.01
CN(C)CCCN1c2ccccc2Sc2ccccc21	1
CC12CCC(=O)C=C1CCC1C2[C@@H](O)CC2(C)C1CC[C@]2(O)C(=O)COP(=O)(O)O (some centres undefined)	1.01
CC(C)CC(NC(=O)OCC1c2ccccc2-c2ccccc21)C(=O)O (centres undefined)	1.02
CC(=O)OC1CCC2(C)C(CC(OC(C)=O)C3(C)C4=CC(=O)OC(c5ccoc5)C4(C)CCC23)C1(C)C (centres undefined)	0.994
CCOC(=O)NNc1nncc2ccccc12	1
CC(=O)O[C@@H]1CC[C@@]2(C)C(C[C@@H](OC(C)=O)[C@@]3(C)C4=CC(=O)O[C@@H](c5ccoc5)[C@]4(C)CCC23)C1(C)C (some centres undefined)	1

The measured values listed here are drawn from PubChem BioAssay AID1159580.
